- System: UACC-62 melanoma
- Assay Protocol: NCI tumour cell line growth inhibition, 48 h
Assay Metric: TGI

Consider the following illustrative entries.
Lookup result for "N#CC(C#N)=c1[nH]c2cccc3c2-c2c(cccc2c3=C(C#N)C#N)[nH]1" ; measured TGI: > 100 µM

Lookup result for "Cc1cc(NC(=O)c2ccc(C)c(Nc3nccc(-c4cccnc4)n3)c2)cc(-n2cnc(C)c2)c1" ; measured TGI: 11 µM

Lookup result for "CCOC(=O)C1(C(=O)OCC)CN(CC)CN(c2ccccc2)C1" ; measured TGI: 68.5 µM

Lookup result for "O=C(N/N=C\c1cc(Br)ccc1O)c1ccncc1" ; measured TGI: 7.4 µM

Lookup result for "O=C(O)c1ccccc1-c1ccccc1C(=O)Nc1ccc2c(c1)Cc1cc(F)ccc1-2" ; measured TGI: 36.8 µM

# ---- query compound ----
Lookup result for "COc1ccnc2c1C(=O)c1nc3ccccc3c3ccnc-2c13" ; measured TGI: 0.504 µM
